Origin of the recorded values: ChEMBL document CHEMBL3407416

TARGET SYSTEM: Phosphatidylinositol 4,5-bisphosphate 3-kinase catalytic subunit alpha isoform (Homo sapiens)
Sequence (P42336 whole entry, canonical isoform): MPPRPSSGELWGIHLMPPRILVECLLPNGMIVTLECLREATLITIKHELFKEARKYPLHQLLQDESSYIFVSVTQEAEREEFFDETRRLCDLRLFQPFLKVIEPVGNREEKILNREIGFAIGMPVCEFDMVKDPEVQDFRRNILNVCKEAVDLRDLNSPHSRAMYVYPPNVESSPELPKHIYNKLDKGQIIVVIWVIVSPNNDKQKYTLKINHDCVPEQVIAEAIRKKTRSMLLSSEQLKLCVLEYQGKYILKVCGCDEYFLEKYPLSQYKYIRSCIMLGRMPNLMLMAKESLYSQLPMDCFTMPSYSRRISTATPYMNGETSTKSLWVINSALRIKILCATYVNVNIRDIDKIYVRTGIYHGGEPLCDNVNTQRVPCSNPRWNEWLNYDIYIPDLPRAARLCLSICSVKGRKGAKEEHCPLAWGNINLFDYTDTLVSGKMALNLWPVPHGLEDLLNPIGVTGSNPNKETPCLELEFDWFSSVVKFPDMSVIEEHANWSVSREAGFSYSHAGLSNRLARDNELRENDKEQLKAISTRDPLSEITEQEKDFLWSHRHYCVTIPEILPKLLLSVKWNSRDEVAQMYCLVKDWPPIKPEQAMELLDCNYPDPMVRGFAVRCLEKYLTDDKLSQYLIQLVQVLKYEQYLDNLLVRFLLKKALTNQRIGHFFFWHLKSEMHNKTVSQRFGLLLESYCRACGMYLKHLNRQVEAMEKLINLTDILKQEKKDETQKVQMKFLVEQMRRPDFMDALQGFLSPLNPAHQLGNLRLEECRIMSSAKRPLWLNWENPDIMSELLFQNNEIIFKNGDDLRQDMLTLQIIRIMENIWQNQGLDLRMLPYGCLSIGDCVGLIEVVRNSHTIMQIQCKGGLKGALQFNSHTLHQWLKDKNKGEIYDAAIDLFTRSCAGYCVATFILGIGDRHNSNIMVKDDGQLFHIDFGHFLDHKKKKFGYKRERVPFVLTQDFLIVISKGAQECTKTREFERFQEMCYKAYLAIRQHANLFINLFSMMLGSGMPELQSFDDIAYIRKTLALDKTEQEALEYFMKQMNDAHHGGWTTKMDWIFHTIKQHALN
ASSAY SUMMARY: Inhibition of human recombinant PI3Kalpha using PIP2 by Kinase-Glo Plus assay
QUANTITY MEASURED: pIC50
// returns pIC50 (minus log10 of molar concentration), number only

MOLECULE: C[C@@H](Nc1cc(F)cc(F)c1)c1cc(C(=O)N2CCC2)cc2c(=O)cc(N3CCOCC3)oc12
pIC50: 7.54

[ask] Please give the documented pIC50 of CC(Nc1cccc(Cl)c1)c1cc(C(=O)N(C)C)cc2c(=O)cc(N3CCOCC3)oc12 (racemic)
[reply] 7.07

[ask] Please give the documented pIC50 of Cc1cc(F)cc(NC(C)c2cc(C(=O)N(C)C)cc3c(=O)cc(N4CCOCC4)oc23)c1 (racemic)
[reply] 6.89

[ask] Please give the documented pIC50 of CC(Nc1cc(F)cc(F)c1)c1cc(C(=O)N2CCC(O)CC2)cc2c(=O)cc(N3CCOCC3)oc12 (racemic)
[reply] 6.64
